Reported IC50 values for the following compounds.
# Target of assay: UniProt P12821
# Sequence (P12821 whole entry): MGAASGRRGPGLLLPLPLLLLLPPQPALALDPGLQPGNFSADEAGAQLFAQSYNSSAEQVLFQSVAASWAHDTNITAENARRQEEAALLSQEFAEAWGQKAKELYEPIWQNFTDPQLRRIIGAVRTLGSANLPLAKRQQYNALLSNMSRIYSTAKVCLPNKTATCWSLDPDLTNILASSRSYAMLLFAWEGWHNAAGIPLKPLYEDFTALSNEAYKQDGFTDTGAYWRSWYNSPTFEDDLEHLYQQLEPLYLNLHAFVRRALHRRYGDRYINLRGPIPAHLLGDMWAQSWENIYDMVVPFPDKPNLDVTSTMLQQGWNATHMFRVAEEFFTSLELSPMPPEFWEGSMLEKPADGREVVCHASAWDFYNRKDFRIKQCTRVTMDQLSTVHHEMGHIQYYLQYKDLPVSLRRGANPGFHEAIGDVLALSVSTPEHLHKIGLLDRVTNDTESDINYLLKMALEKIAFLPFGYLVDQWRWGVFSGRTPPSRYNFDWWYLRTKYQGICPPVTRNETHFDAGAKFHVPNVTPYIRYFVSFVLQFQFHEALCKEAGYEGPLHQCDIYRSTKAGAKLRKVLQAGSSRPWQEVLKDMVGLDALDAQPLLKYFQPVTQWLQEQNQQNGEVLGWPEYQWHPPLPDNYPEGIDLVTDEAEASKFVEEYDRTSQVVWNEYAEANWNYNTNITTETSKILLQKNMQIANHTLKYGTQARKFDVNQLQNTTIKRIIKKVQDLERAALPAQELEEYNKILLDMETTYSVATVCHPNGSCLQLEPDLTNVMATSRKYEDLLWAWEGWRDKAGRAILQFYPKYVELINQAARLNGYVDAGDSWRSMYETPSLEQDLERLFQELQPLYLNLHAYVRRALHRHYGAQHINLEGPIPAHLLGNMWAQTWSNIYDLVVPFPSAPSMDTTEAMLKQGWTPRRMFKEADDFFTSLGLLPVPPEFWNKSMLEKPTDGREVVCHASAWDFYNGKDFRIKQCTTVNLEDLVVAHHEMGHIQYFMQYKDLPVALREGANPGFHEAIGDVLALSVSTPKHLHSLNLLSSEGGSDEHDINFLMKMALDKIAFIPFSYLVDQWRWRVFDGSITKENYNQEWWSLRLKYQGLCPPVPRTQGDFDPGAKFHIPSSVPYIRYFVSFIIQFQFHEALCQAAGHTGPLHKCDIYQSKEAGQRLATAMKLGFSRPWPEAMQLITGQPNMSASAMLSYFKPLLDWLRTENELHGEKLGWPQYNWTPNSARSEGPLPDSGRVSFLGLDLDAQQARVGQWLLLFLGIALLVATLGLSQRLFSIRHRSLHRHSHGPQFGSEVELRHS
Parameter measured: IC50 (nM)

                        structure_as_smiles  parameter_measured  recorded_result
0  CC(=O)CN1C(=O)/C(=N\C(=S)NCc2cc3ccccc3cc2O)c2ccccc21                IC50              112
1  CN1C(=O)/C(=N\C(=S)NCc2cc3ccccc3cc2O)c2ccccc21                IC50             22.3
2  O=C(O)CN1C(=O)/C(=N\C(=S)NCc2cc3ccccc3cc2O)c2ccccc21                IC50             2.85
3  O=C1/C(=N\C(=S)NCc2cc3ccccc3cc2O)c2ccccc2N1c1ccccc1Cl                IC50             15.1
4  Cc1ccc(C(=O)N2C(=O)/C(=N\C(=S)NCc3cc4ccccc4cc3O)c3ccccc32)cc1                IC50             24.2
5  O=C1/C(=N\C(=S)NCc2cc3ccccc3cc2O)c2ccccc2N1CCBr                IC50             4.11
6  CC(=O)N1C(=O)/C(=N\C(=S)NCc2cc3ccccc3cc2O)c2ccccc21                IC50             10.7
